Test: Inhibitory activity against on calpain 1 in C6 glial cells
measured property: IC50 (µM)

| molecule | value units | endpoint result |
| --- | --- | --- |
| CC(=O)OC1OCC[C@@H]1NC(=O)[C@H](CC(C)C)NC(=O)c1ccc2c(c1)Nc1ccccc1S2 (stereo partly specified) | µM | 13.3 |

* * *

Assay: Inhibitory activity against on calpain in C6 glial cells
pIC50: −log10 of the molar value.
measured property: pIC50

| molecule | endpoint result |
| --- | --- |
| CC(C)C[C@H](NC(=O)c1ccc2c(c1)Nc1ccccc1S2)C(=O)N[C@H]1CCOC1O (stereo partly specified) | 4.63 |
